Quick reference for Selectivity Index among some compounds
- Species: Homo sapiens
- assay.info: Selectivity ratio of Ki for human CB1 receptor to Ki for human CB2 receptor

Below are worked cases with known answers.
>>> df
                                   compound  observed_property  measured_value
0  CCCCCn1cc(C(=O)NC23CC4CC(CC(C4)C2)C3)c(=O)c2cc(-c3ccc(C#N)cc3)ccc21  Selectivity Index           > 239
1  CCCCCn1cc(C(=O)NC23CC4CC(CC(C4)C2)C3)c(=O)c2cc(-c3cnn(CC(C)C)c3)ccc21  Selectivity Index               5
2  CCCCCn1cc(C(=O)NC23CC4CC(CC(C4)C2)C3)c(=O)c2cc(I)ccc21  Selectivity Index             101
3  CCCCCn1cc(C(=O)NC23CC4CC(CC(C4)C2)C3)c(=O)c2cc(-c3ccc(F)cc3F)ccc21  Selectivity Index           > 625
4  CCCCCn1cc(C(=O)NC23CC4CC(CC(C4)C2)C3)c(=O)c2cc([S+]([O-])c3ccccc3)ccc21 (stereo not drawn)  Selectivity Index               6

Q) Which value of Selectivity Index has been reported for C=CCn1cc(C(=O)NC23CC4CC(CC(C4)C2)C3)c(=O)c2cc(-c3ccco3)ccc21 in the records?
A) > 169

Q) What value of measured Selectivity Index is listed for CCCCCn1cc(C(=O)NC23CC4CC(CC(C4)C2)C3)c(=O)c2cc(C3=CCCCC3)ccc21 ?
A) > 1200

Q) So what's the measured Selectivity Index for this one? CCCCCn1cc(C(=O)NC23CC4CC(CC(C4)C2)C3)c(=O)c2cc(-c3ccc(Cl)cc3)ccc21
A) > 909

* * *

- tgt: CYP3A4 (Homo sapiens)
- Sequence (P08684 whole entry): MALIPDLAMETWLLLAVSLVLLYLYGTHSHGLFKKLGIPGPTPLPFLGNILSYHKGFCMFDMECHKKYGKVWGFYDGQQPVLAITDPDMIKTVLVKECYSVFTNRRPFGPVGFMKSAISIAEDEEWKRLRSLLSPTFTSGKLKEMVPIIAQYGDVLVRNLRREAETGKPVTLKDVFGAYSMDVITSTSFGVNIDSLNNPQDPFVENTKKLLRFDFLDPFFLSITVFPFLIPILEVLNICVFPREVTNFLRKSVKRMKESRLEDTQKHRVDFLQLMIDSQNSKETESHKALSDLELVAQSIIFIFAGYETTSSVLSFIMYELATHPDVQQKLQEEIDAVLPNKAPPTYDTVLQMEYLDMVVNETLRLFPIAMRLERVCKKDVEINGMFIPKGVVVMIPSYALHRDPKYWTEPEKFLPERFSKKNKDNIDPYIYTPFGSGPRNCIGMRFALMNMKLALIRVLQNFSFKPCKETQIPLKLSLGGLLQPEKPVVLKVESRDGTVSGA
- assay.info: Inhibition of CYP3A4 after 1 hr assessed as residual activity
- Assay type: ADME
- study.conditions: read-out: Activity
observed.property: activity at 1 h (%)
Please reply with the bare figure in % and do not write the unit itself.

Q) Name the reported activity at 1 h value associated with the compound CCCCCn1cc(C(=O)NC23CC4CC(CC(C4)C2)C3)c(=O)c2cc(-c3ccco3)ccc21
A) 4

* * *

- tgt: Cannabinoid receptor 2 (Homo sapiens, UniProt P34972)
- Sequence (P34972 whole entry): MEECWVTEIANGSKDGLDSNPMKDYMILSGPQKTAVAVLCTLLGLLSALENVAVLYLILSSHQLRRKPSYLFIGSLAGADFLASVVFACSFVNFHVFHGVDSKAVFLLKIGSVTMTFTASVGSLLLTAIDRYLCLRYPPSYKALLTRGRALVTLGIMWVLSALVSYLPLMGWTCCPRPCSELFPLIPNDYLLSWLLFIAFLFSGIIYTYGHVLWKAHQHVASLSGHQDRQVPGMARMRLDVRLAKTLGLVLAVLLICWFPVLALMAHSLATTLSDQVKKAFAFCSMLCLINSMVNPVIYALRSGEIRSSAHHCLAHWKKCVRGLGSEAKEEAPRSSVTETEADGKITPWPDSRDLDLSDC
Measured log10 Ki of individual entries
Remember, log10 of Ki, in nM.

In [3]: df
Out[3]:
                                        smi  measured_value
0  CCCCCn1cc(C(=O)NC23CC4CC(CC(C4)C2)C3)c(=O)c2cc(CC)ccc21            1.23
1  CCCCCn1cc(C(=O)NC23CC4CC(CC(C4)C2)C3)c(=O)c2cc(I)ccc21            1.31
2  CCCCCn1cc(C(=O)NC23CC4CC(CC(C4)C2)C3)c(=O)c2cc(-c3ccc(OC)nc3)ccc21            1.77
3  CCCCCn1cc(C(=O)NC23CC4CC(CC(C4)C2)C3)c(=O)c2cc(-c3ccc(-c4ccccc4)cc3)ccc21            2.26
4  CCCCCn1cc(C(=O)NC23CC4CC(CC(C4)C2)C3)c(=O)c2cc(CCc3ccccc3)ccc21            1.75

Q) Under Cannabinoid receptor 2 (Homo sapiens, UniProt P34972): log10 Ki value of C#CCn1cc(C(=O)NC23CC4CC(CC(C4)C2)C3)c(=O)c2cc(Br)ccc21 ?
A) 1.70

Q) Enter reported log10 Ki observed with Cannabinoid receptor 2 (Homo sapiens, UniProt P34972) for CCCCCn1cc(C(=O)NC23CC4CC(CC(C4)C2)C3)c(=O)c2cc(-c3cnn(CC(C)C)c3)ccc21
A) 1.71

Q) Give recorded log10 Ki with Cannabinoid receptor 2 (Homo sapiens, UniProt P34972) for the following compound: CCCCCn1cc(C(=O)NC23CC4CC(CC(C4)C2)C3)c(=O)c2cc(S(=O)(=O)c3ccccc3)ccc21
A) 1.82
